Each entry below carries its reported IC50.
biological target: Human DGAT1 (Homo sapiens); construct: my translation of the primer: M-G-DYKDDDD-GDRGSSRRR) (N); made in house; host or cells: Sf9 insect cells (recombinant baculovirus BAC-DGAT1, pFASTBAC1); microsome fraction; experiment: DGAT inhibitory activity: [14C]-triglyceride synthesis by DGAT1 high expression Sf9 microsome; assay type: biochemical; details: Table 1, 25 μM dioleoylglycerol, 25 μM [14C]-Oleoyl-CoA, 32° C., 15 min, read-out: DGAT inhibitory activity (according to IC50)
Sequence (O75907 whole entry): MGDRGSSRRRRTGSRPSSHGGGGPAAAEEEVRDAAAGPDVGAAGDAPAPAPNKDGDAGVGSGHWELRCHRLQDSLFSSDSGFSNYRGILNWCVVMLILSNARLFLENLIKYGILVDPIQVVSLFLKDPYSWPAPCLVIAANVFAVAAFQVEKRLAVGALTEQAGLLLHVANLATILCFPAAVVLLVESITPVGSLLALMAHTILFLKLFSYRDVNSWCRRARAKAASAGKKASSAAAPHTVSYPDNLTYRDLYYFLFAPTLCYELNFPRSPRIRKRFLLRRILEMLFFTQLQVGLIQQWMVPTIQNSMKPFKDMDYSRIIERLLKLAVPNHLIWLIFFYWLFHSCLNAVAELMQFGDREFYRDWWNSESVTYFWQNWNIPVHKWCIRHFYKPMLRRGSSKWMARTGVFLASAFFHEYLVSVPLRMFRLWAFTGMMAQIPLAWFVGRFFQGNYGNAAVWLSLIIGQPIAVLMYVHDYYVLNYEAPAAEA
Readout: IC50

Structure Smiles String: CCOc1ccc(C(=O)CCC(=O)Nc2cc(-c3ccccc3)c(Cc3ccccc3)s2)cc1
Result: 0.05 to 0.5 µM

Structure Smiles String: CCOc1ccc(C(=O)CCC(=O)Nc2nc(-c3ccccc3)c(Cc3ccccc3)s2)cc1/C=C/C(=O)O
Result: 0.05 to 0.5 µM

Structure Smiles String: COc1cc2c(cc1C(=O)CCC(=O)Nc1nc(-c3ccccc3)c(Cc3ccccc3)s1)CCCC2
Result: 0.01 to 0.05 µM

Structure Smiles String: CCOc1ccc(C(=O)CCC(=O)Nc2nc(-c3ccccc3)c(Cc3ccccc3)s2)cc1
Result: ≤ 0.01 µM
